# settings: in n-butyl acetate, 323.15 K
reported.endpoint: solubility (mole fraction)
Number, no unit, nothing else.

input: Data request, read-out solubility (mole fraction), for CCCCN(CCCC)c1ccc(C(=O)c2ccccc2C(=O)O)c(O)c1
output: 0.0123

---

# settings: in isopropanol, 283.15 K
reported.endpoint: solubility (mole fraction)
Number, no unit, nothing else.

input: Data request, read-out solubility (mole fraction), for CCCCN(CCCC)c1ccc(C(=O)c2ccccc2C(=O)O)c(O)c1
output: 0.00178

---

# settings: in n-propanol, 298.15 K
reported.endpoint: solubility (mole fraction)
Number, no unit, nothing else.

input: Data request, read-out solubility (mole fraction), for CCCCN(CCCC)c1ccc(C(=O)c2ccccc2C(=O)O)c(O)c1
output: 0.0321

---

# settings: in isopropanol, 303.15 K
reported.endpoint: solubility (mole fraction)
Number, no unit, nothing else.

input: Data request, read-out solubility (mole fraction), for CCCCN(CCCC)c1ccc(C(=O)c2ccccc2C(=O)O)c(O)c1
output: 0.00508

---

# settings: in methanol, 303.15 K
reported.endpoint: solubility (mole fraction)
Number, no unit, nothing else.

input: Data request, read-out solubility (mole fraction), for CCCCN(CCCC)c1ccc(C(=O)c2ccccc2C(=O)O)c(O)c1
output: 0.0037

---

# settings: in methanol, 313.15 K
reported.endpoint: solubility (mole fraction)
Number, no unit, nothing else.

input: Data request, read-out solubility (mole fraction), for CCCCN(CCCC)c1ccc(C(=O)c2ccccc2C(=O)O)c(O)c1
output: 0.00617

---

# settings: in acetonitrile, 298.15 K
reported.endpoint: solubility (mole fraction)
Number, no unit, nothing else.

input: Data request, read-out solubility (mole fraction), for CCCCN(CCCC)c1ccc(C(=O)c2ccccc2C(=O)O)c(O)c1
output: 0.00138

---

# settings: in ethanol, 318.15 K
reported.endpoint: solubility (mole fraction)
Number, no unit, nothing else.

input: Data request, read-out solubility (mole fraction), for CCCCN(CCCC)c1ccc(C(=O)c2ccccc2C(=O)O)c(O)c1
output: 0.0102

---

# settings: in n-propanol, 303.15 K
reported.endpoint: solubility (mole fraction)

input: Data request, read-out solubility (mole fraction), for CCCCN(CCCC)c1ccc(C(=O)c2ccccc2C(=O)O)c(O)c1
output: 0.0399

---

# settings: in methanol, 318.15 K
reported.endpoint: solubility (mole fraction)
Number, no unit, nothing else.

input: Data request, read-out solubility (mole fraction), for CCCCN(CCCC)c1ccc(C(=O)c2ccccc2C(=O)O)c(O)c1
output: 0.00811

---

# settings: in methanol, 293.15 K
reported.endpoint: solubility (mole fraction)
Number, no unit, nothing else.

input: Data request, read-out solubility (mole fraction), for CCCCN(CCCC)c1ccc(C(=O)c2ccccc2C(=O)O)c(O)c1
output: 0.00238

---

# settings: in n-butyl acetate, 283.15 K
reported.endpoint: solubility (mole fraction)
Number, no unit, nothing else.

input: Data request, read-out solubility (mole fraction), for CCCCN(CCCC)c1ccc(C(=O)c2ccccc2C(=O)O)c(O)c1
output: 0.00418

---

# settings: in ethanol, 288.15 K
reported.endpoint: solubility (mole fraction)
Number, no unit, nothing else.

input: Data request, read-out solubility (mole fraction), for CCCCN(CCCC)c1ccc(C(=O)c2ccccc2C(=O)O)c(O)c1
output: 0.00252

---

# settings: in methanol, 323.15 K
reported.endpoint: solubility (mole fraction)
Number, no unit, nothing else.

input: Data request, read-out solubility (mole fraction), for CCCCN(CCCC)c1ccc(C(=O)c2ccccc2C(=O)O)c(O)c1
output: 0.0111

---

# settings: in n-propyl acetate, 313.15 K
reported.endpoint: solubility (mole fraction)
Number, no unit, nothing else.

input: Data request, read-out solubility (mole fraction), for CCCCN(CCCC)c1ccc(C(=O)c2ccccc2C(=O)O)c(O)c1
output: 0.00983

---

# settings: in ethyl acetate, 313.15 K
reported.endpoint: solubility (mole fraction)
Number, no unit, nothing else.

input: Data request, read-out solubility (mole fraction), for CCCCN(CCCC)c1ccc(C(=O)c2ccccc2C(=O)O)c(O)c1
output: 0.00995

---

# settings: in n-heptane, 313.15 K
reported.endpoint: solubility (mole fraction)
Number, no unit, nothing else.

input: Data request, read-out solubility (mole fraction), for CCCCN(CCCC)c1ccc(C(=O)c2ccccc2C(=O)O)c(O)c1
output: 4.3e-05

---

# settings: in n-propanol, 313.15 K
reported.endpoint: solubility (mole fraction)
Number, no unit, nothing else.

input: Data request, read-out solubility (mole fraction), for CCCCN(CCCC)c1ccc(C(=O)c2ccccc2C(=O)O)c(O)c1
output: 0.062

---

# settings: in ethyl acetate, 308.15 K
reported.endpoint: solubility (mole fraction)
Number, no unit, nothing else.

input: Data request, read-out solubility (mole fraction), for CCCCN(CCCC)c1ccc(C(=O)c2ccccc2C(=O)O)c(O)c1
output: 0.009

---

# settings: in acetone, 323.15 K
reported.endpoint: solubility (mole fraction)

input: Data request, read-out solubility (mole fraction), for CCCCN(CCCC)c1ccc(C(=O)c2ccccc2C(=O)O)c(O)c1
output: 0.0436

---

# settings: in acetone, 308.15 K
reported.endpoint: solubility (mole fraction)
Number, no unit, nothing else.

input: Data request, read-out solubility (mole fraction), for CCCCN(CCCC)c1ccc(C(=O)c2ccccc2C(=O)O)c(O)c1
output: 0.0291

---

# settings: in methanol, 283.15 K
reported.endpoint: solubility (mole fraction)
Number, no unit, nothing else.

input: Data request, read-out solubility (mole fraction), for CCCCN(CCCC)c1ccc(C(=O)c2ccccc2C(=O)O)c(O)c1
output: 0.00164

---

# settings: in isopropyl acetate, 303.15 K
reported.endpoint: solubility (mole fraction)
Number, no unit, nothing else.

input: Data request, read-out solubility (mole fraction), for CCCCN(CCCC)c1ccc(C(=O)c2ccccc2C(=O)O)c(O)c1
output: 0.00715

---

# settings: in acetone, 288.15 K
reported.endpoint: solubility (mole fraction)
Number, no unit, nothing else.

input: Data request, read-out solubility (mole fraction), for CCCCN(CCCC)c1ccc(C(=O)c2ccccc2C(=O)O)c(O)c1
output: 0.0171

---

# settings: in acetonitrile, 303.15 K
reported.endpoint: solubility (mole fraction)
Number, no unit, nothing else.

input: Data request, read-out solubility (mole fraction), for CCCCN(CCCC)c1ccc(C(=O)c2ccccc2C(=O)O)c(O)c1
output: 0.0018

---

# settings: in n-propanol, 293.15 K
reported.endpoint: solubility (mole fraction)
Number, no unit, nothing else.

input: Data request, read-out solubility (mole fraction), for CCCCN(CCCC)c1ccc(C(=O)c2ccccc2C(=O)O)c(O)c1
output: 0.0258

---

# settings: in n-butyl acetate, 293.15 K
reported.endpoint: solubility (mole fraction)
Number, no unit, nothing else.

input: Data request, read-out solubility (mole fraction), for CCCCN(CCCC)c1ccc(C(=O)c2ccccc2C(=O)O)c(O)c1
output: 0.00556

---

# settings: in isopropyl acetate, 318.15 K
reported.endpoint: solubility (mole fraction)
Number, no unit, nothing else.

input: Data request, read-out solubility (mole fraction), for CCCCN(CCCC)c1ccc(C(=O)c2ccccc2C(=O)O)c(O)c1
output: 0.00991

---

# settings: in n-butyl acetate, 308.15 K
reported.endpoint: solubility (mole fraction)
Number, no unit, nothing else.

input: Data request, read-out solubility (mole fraction), for CCCCN(CCCC)c1ccc(C(=O)c2ccccc2C(=O)O)c(O)c1
output: 0.00824

---

# settings: in acetone, 283.15 K
reported.endpoint: solubility (mole fraction)
Number, no unit, nothing else.

input: Data request, read-out solubility (mole fraction), for CCCCN(CCCC)c1ccc(C(=O)c2ccccc2C(=O)O)c(O)c1
output: 0.015

---

# settings: in ethanol, 323.15 K
reported.endpoint: solubility (mole fraction)
Number, no unit, nothing else.

input: Data request, read-out solubility (mole fraction), for CCCCN(CCCC)c1ccc(C(=O)c2ccccc2C(=O)O)c(O)c1
output: 0.013

---

# settings: in n-propyl acetate, 303.15 K
reported.endpoint: solubility (mole fraction)
Number, no unit, nothing else.

input: Data request, read-out solubility (mole fraction), for CCCCN(CCCC)c1ccc(C(=O)c2ccccc2C(=O)O)c(O)c1
output: 0.00738

---

# settings: in ethyl acetate, 298.15 K
reported.endpoint: solubility (mole fraction)
Number, no unit, nothing else.

input: Data request, read-out solubility (mole fraction), for CCCCN(CCCC)c1ccc(C(=O)c2ccccc2C(=O)O)c(O)c1
output: 0.00698

---

# settings: in acetone, 293.15 K
reported.endpoint: solubility (mole fraction)
Number, no unit, nothing else.

input: Data request, read-out solubility (mole fraction), for CCCCN(CCCC)c1ccc(C(=O)c2ccccc2C(=O)O)c(O)c1
output: 0.0196

---

# settings: in isopropanol, 308.15 K
reported.endpoint: solubility (mole fraction)
Number, no unit, nothing else.

input: Data request, read-out solubility (mole fraction), for CCCCN(CCCC)c1ccc(C(=O)c2ccccc2C(=O)O)c(O)c1
output: 0.00667
